Target: COX-2 (cyclooxygenase-2) (Homo sapiens)
Construct: gene PTGS2
Sequence (P35354 18-604): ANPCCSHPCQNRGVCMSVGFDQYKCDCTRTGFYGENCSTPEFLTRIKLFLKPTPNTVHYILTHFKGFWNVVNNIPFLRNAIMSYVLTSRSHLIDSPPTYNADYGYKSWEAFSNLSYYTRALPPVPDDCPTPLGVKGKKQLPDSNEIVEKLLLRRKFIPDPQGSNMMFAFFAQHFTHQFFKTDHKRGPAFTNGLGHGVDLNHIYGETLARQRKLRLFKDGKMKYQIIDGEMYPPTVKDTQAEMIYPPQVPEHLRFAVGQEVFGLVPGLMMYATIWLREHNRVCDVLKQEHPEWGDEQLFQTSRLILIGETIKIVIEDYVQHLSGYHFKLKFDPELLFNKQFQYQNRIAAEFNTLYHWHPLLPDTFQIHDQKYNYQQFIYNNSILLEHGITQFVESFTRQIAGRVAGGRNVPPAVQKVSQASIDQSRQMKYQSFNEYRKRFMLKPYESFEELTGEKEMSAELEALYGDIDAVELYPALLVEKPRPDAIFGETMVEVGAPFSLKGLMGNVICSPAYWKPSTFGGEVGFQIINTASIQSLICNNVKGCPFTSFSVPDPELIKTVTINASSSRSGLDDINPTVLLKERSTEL
Experiment: biochemical
pIC50: −log10 of the molar value.
endpoint-label: pIC50

>>> number("CC(=O)O[C@H]1[C@@H](O)C=C2C[C@@]3(O)OC[C@@]4(C)O[C@]43C[C@]2(C)[C@H]1C")
3.91
>>> number("CC(=O)O[C@H]1C=C2C[C@@]3(O)OC[C@@]4(C)O[C@]43C[C@]2(C)[C@@H](C)[C@H]1O")
4.03
